Reported pIC50 by item:
molecular target: EGFR (Homo sapiens, UniProt P00533); construct: Kinases are expressed as either kinase domains or full length constructs; made in house; test: Kinase inhibition assay (33P transfer), EGFR; type: biochemical; conditions: Table 2, kinase inhibition class; read-out: EGFR-1
Sequence (P00533 25-1210, species assumed): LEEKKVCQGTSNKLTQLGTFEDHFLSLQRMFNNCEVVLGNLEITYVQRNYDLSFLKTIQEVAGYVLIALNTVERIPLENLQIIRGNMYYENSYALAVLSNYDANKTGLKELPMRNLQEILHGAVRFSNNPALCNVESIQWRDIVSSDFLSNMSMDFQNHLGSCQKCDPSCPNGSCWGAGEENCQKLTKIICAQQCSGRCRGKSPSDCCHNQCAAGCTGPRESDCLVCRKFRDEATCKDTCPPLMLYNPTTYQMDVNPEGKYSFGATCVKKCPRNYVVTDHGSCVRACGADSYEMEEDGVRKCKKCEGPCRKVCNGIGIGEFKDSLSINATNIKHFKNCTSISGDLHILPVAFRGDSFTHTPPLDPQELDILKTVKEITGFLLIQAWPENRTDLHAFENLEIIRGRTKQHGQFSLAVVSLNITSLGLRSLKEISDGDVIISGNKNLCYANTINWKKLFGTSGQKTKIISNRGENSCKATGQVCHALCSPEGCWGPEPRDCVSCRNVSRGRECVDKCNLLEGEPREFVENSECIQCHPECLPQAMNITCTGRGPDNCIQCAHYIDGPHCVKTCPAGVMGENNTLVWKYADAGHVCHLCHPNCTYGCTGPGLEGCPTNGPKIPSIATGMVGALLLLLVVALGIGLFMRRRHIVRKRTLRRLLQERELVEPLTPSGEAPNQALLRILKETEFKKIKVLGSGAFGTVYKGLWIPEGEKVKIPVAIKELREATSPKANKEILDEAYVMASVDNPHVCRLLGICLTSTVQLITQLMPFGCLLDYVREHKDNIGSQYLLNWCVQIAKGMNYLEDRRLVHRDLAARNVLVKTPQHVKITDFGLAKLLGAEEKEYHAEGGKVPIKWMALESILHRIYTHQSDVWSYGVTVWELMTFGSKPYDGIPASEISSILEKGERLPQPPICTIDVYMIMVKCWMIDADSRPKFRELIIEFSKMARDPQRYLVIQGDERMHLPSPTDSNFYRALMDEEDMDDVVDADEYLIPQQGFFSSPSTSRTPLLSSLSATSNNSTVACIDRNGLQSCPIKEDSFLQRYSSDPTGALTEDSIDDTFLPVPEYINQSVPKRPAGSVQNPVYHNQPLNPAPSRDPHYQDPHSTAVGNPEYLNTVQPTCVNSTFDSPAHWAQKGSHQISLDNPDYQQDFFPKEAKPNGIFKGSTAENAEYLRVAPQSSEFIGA
pIC50: −log10 of the molar value.

Examples with their reported pIC50 follow.
molecule	result
Nc1nc2ccccc2n1-c1ncnc(Nc2ccccc2)n1	< 4.83
Nc1nc2ccccc2n1-c1ncnc(Nc2cccc(-c3cnco3)c2)n1	5.19 to 5.97
Cc1ccc2c(c1)CCCN2c1ncnc(Nc2cccc(-c3cnco3)c2)n1	> 5.98
COc1cc(Nc2ncnc(Nc3ccc(Br)c(Cl)c3)n2)cc(OC)c1OC	> 6.07
COc1cc(Nc2ncnc(-n3c(NCc4ccccc4)nc4ccccc43)n2)cc(OC)c1OC	5.14 to 5.30
COc1cc(Nc2ncnc(-n3c(NC(C)c4ccc(F)cc4)nc4ccccc43)n2)cc(OC)c1OC (centres unmarked)	< 5.06
COc1cc2ccn(-c3ncnc(Nc4cc(OC)c(OC)c(OC)c4)n3)c2cc1OC	4.99 to 5.10
COc1cc(Nc2ncnc(Nc3ccc4[nH]ccc4c3)n2)cc(OC)c1OC	> 5.99
Nc1ncnc(Nc2ccc3c(c2)OCO3)n1	4.71 to 4.82
c1ccc(CCNc2ncnc(Nc3ccc4c(cnn4Cc4ccccc4)c3)n2)cc1	< 4.97

Kindly note the recorded pIC50 for COC(=O)Cc1cccc(Nc2ncnc(Nc3cccc(Br)c3)n2)c1 , which is > 6.02

pIC50 reading for OCc1ccc(Nc2ncnc(-c3ccccc3)n2)cc1 : < 4.79

Note to self: pIC50 recorded for COc1cc(Nc2ncnc(-n3c(=O)[nH]c4ccccc43)n2)cc(OC)c1OC was 4.94 to 5.05

GET /value?item= O=c1[nH]c2ccccc2n1-c1ncnc(Nc2ccccc2Cl)n1 &field=pIC50 returns 5.15 to 5.93

----------
biological target: Lck (Homo sapiens); construct: Kinases are expressed as either kinase domains or full length constructs; made in house; assay: Kinase inhibition assay (33P transfer), Lck; format: biochemical; conditions: read-out: Lck-1
Sequence (P06239 whole entry, species assumed, the tested form may be a part): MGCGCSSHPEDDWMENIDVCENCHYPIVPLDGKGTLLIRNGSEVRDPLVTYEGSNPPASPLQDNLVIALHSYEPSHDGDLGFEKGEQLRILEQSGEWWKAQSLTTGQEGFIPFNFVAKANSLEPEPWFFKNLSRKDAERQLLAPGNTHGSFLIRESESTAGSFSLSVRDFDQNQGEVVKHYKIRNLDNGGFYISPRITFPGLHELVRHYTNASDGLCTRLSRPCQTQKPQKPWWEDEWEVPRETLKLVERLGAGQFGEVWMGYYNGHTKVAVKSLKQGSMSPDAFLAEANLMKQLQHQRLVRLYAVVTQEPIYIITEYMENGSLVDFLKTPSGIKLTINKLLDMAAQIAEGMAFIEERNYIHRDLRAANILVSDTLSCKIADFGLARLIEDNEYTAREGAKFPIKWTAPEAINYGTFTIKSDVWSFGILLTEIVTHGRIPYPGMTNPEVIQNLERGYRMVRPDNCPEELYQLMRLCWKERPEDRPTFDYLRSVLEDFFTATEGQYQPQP
measuredQuantity: IC50

Solved cases (3 shown):
compound	IC50
NC(=O)Cc1ccc(Nc2ncnc(Nc3cc(-c4ccccc4)n[nH]3)n2)cc1	< 1.04 µM
COC(=O)c1ccc(-c2cc(Nc3ncnc(Nc4cccc(CC(=O)O)c4)n3)[nH]n2)cc1	0.898 to 5.39 µM
CN(c1cccc(Cl)c1)c1ncnc(NC2CCN(Cc3ccccc3)CC2)n1	> 11 µM

Consider the additional compound presented here.
Case COc1cc(Nc2ncnc(NC3CC3c3ccccc3)n2)cc(OC)c1OCCN1CCOCC1 (stereo not drawn) , Lck (Homo sapiens), IC50 recorded as < 0.812 µM

----------
Measured IC50 accompanies every entry in the list below.
biological target: Kdr (Homo sapiens, UniProt P35968); construct: Kinases are expressed as either kinase domains or full length constructs; made in house; assay: Kinase inhibition assay (33P transfer), Kdr; type: biochemical; conditions: read-out: KDR-1
Sequence (P35968 20-1356, species assumed): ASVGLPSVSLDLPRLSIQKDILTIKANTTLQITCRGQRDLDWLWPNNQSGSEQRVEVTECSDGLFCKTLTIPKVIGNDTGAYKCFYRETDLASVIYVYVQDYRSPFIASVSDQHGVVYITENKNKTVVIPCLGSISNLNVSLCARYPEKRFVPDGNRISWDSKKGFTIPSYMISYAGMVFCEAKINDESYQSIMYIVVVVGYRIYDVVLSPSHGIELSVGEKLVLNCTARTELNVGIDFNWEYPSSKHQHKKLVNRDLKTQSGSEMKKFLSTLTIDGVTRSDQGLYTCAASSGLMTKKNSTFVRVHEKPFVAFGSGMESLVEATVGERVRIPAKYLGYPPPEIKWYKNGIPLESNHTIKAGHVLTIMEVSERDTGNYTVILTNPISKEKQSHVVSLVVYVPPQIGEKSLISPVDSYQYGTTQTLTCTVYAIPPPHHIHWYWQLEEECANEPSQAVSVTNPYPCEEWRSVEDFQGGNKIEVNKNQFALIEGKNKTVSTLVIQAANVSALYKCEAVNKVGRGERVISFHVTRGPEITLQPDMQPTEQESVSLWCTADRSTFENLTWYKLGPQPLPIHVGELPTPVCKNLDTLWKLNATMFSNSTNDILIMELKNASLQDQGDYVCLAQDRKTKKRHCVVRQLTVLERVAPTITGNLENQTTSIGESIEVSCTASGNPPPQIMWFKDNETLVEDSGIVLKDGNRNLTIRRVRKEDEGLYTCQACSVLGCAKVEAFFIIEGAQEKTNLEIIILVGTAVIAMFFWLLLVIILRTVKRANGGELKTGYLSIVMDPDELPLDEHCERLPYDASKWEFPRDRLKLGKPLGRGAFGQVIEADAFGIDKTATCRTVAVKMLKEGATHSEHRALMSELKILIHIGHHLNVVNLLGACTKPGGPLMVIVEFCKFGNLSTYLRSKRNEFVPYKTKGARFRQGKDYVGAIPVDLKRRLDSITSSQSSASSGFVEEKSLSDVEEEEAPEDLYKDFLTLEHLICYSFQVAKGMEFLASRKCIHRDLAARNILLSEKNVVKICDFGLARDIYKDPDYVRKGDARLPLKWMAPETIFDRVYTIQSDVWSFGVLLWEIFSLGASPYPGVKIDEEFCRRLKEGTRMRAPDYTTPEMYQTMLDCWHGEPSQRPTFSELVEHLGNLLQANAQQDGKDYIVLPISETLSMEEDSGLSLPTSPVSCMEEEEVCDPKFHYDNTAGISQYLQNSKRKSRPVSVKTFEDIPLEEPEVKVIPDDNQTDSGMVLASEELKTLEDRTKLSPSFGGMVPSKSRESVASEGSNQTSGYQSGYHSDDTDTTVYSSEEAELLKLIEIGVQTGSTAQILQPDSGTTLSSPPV

molecule	testSystem	IC50
COc1ccc(CNc2nc3ccccc3n2-c2ncnc(Nc3cccc(CC(=O)O)c3)n2)cc1 [Compound 534]	Kdr (Homo sapiens, UniProt P35968)	< 0.831 µM
Nc1nc2ccccc2n1-c1ncnc(Nc2cccc(CC(=O)O)c2)n1 [Compound 544]	Kdr (Homo sapiens, UniProt P35968)	< 1.11 µM
COc1cc(Nc2ncnc(Nc3cc(OC)c(OCCN4CCOCC4)c(OC)c3)n2)cc(OC)c1OC [Compound 562]	Kdr (Homo sapiens, UniProt P35968)	4.42 to 6.45 µM

Here is another molecule to look at.
Memo: CN(c1cccc(Cl)c1)c1ncnc(N(C)c2cccc(Cl)c2)n1 [Compound 702] , reported IC50: > 12.5 µM
